Organism: Bos taurus
Assay: Inhibition of calf thymus DNA topoisomerase 1-mediated relaxation of supercoiled pBR322 plasmid DNA at 1 ug/ml by agarose gel electrophoresis
Active and inactive are the calls of the source. The calls are words filed in the database; no cut-off is given here.
endpoint-label: inhibition

Observe how each entry below is paired with its result.
- smiles-record: "Oc1ccccc1-c1nc2cc(Cl)ccc2[nH]1"
  inhibition: "99%"
- smiles-record: "Clc1ccc2[nH]c(-c3ccccc3OCCN3CCCCC3)nc2c1"
  inhibition: "inactive"
- smiles-record: "c1ccc(-c2nc3ccccc3[nH]2)c(OCCN2CCCC2)c1"
  inhibition: "90.2%"
- smiles-record: "c1ccc(-c2nc3ccccc3[nH]2)c(OCCN2CCCCC2)c1"
  inhibition: "inactive"
- smiles-record: "Clc1ccc2[nH]c(-c3ccccc3OCCN3CCCC3)nc2c1"
  inhibition: "inactive"

Memo: CCN(CC)CCOc1ccccc1-c1nc2cc(Cl)ccc2[nH]1 , reported inhibition: inactive

The recorded inhibition for entry Oc1ccccc1-c1nc2ccccc2[nH]1 equals 95.4%

// c1ccc(-c2nc3ccccc3[nH]2)c(OCCN2CCOCC2)c1 : inhibition value = inactive

Please fill in: inhibition reported for Clc1ccc2[nH]c(-c3ccccc3OCCN3CCOCC3)nc2c1 = inactive
